These measurements were taken from ChEMBL document CHEMBL3885861.

# Species: Rattus norvegicus
# Experimental protocol: Open TG-GATES - Regimen: Daily Repeat
# Assay type: toxicity, organism-based, Sprague-Dawley
# Parameters: regimen Daily Repeat, gender Male, age 6 weeks
# Run parameters: in vivo, po, 300 mg/kg, […], tissue Plasma, route gavage, dose level Middle, time 7 day
Assay readout: BUN (mg/dL)

Chemical structure	Units label	Observed result
COC(=O)C1=C(C)NC(C)=C(C(=O)OC)C1c1ccccc1[N+](=O)[O-]	mg/dL	15.4
O=C(OC[C@H]1O[C@@H](OC(=O)c2cc(O)c(O)c(OC(=O)c3cc(O)c(O)c(O)c3)c2)[C@H](OC(=O)c2cc(O)c(O)c(OC(=O)c3cc(O)c(O)c(O)c3)c2)[C@@H](OC(=O)c2cc(O)c(O)c(OC(=O)c3cc(O)c(O)c(O)c3)c2)[C@@H]1OC(=O)c1cc(O)c(O)c(OC(=O)c2cc(O)c(O)c(O)c2)c1)c1cc(O)c(O)c(OC(=O)c2cc(O)c(O)c(O)c2)c1	mg/dL	19.4
Cc1nnc2n1-c1ccc(Cl)cc1C(c1ccccc1Cl)=NC2	mg/dL	19
CN/C(=N/CCSCc1nc[nH]c1C)NC#N	mg/dL	17.6
CNC(=C[N+](=O)[O-])NCCSCc1ccc(CN(C)C)o1	mg/dL	14.6

* * *

# Organism: Rattus norvegicus
# Experimental protocol: Open TG-GATES - Regimen: Daily Repeat
# Assay type: toxicity, organism-based, Sprague-Dawley
# Design: regimen Daily Repeat, gender Male, age 6 weeks
# Run parameters: in vivo, po, 100 mg/kg, […], tissue Plasma, route gavage, dose level Low, time 7 day

Chemical structure	IP / mg/dL
Cc1nnc2n1-c1ccc(Cl)cc1C(c1ccccc1Cl)=NC2	6.9
CNC(=C[N+](=O)[O-])NCCSCc1ccc(CN(C)C)o1	7.9
CN/C(=N/CCSCc1nc[nH]c1C)NC#N	7.8
O=C(OC[C@H]1O[C@@H](OC(=O)c2cc(O)c(O)c(OC(=O)c3cc(O)c(O)c(O)c3)c2)[C@H](OC(=O)c2cc(O)c(O)c(OC(=O)c3cc(O)c(O)c(O)c3)c2)[C@@H](OC(=O)c2cc(O)c(O)c(OC(=O)c3cc(O)c(O)c(O)c3)c2)[C@@H]1OC(=O)c1cc(O)c(O)c(OC(=O)c2cc(O)c(O)c(O)c2)c1)c1cc(O)c(O)c(OC(=O)c2cc(O)c(O)c(O)c2)c1	8.3
COC(=O)C1=C(C)NC(C)=C(C(=O)OC)C1c1ccccc1[N+](=O)[O-]	6.8
CCOc1ccc(NC(C)=O)cc1	6.9

* * *

Lym values for the compounds below.
# Species on record: Rattus norvegicus
# Experimental protocol: Open TG-GATES - Regimen: Single
# Type: toxicity, organism-based, Sprague-Dawley
# Parameters: regimen Single, gender Male, age 6 weeks
# Run parameters: in vivo, po, 300 mg/kg, 3 h, tissue Blood, route gavage, dose level Middle

Chemical structure	Lym, %
Cc1nnc2n1-c1ccc(Cl)cc1C(c1ccccc1Cl)=NC2	73.8
COC(=O)C1=C(C)NC(C)=C(C(=O)OC)C1c1ccccc1[N+](=O)[O-]	75.2
O=C(OC[C@H]1O[C@@H](OC(=O)c2cc(O)c(O)c(OC(=O)c3cc(O)c(O)c(O)c3)c2)[C@H](OC(=O)c2cc(O)c(O)c(OC(=O)c3cc(O)c(O)c(O)c3)c2)[C@@H](OC(=O)c2cc(O)c(O)c(OC(=O)c3cc(O)c(O)c(O)c3)c2)[C@@H]1OC(=O)c1cc(O)c(O)c(OC(=O)c2cc(O)c(O)c(O)c2)c1)c1cc(O)c(O)c(OC(=O)c2cc(O)c(O)c(O)c2)c1	78.6
CN/C(=N/CCSCc1nc[nH]c1C)NC#N	77.6
CNC(=C[N+](=O)[O-])NCCSCc1ccc(CN(C)C)o1	75.2

* * *

# Species: Rattus norvegicus
# Experimental protocol: Open TG-GATES - Regimen: Single
# Assay type: toxicity, organism-based, Sprague-Dawley
# Design: regimen Single, gender Male, age 6 weeks
# Run parameters: in vivo, po, 100 mg/kg, 24 h, tissue Plasma, route gavage, dose level Low
Assay readout: PL (mg/dL)

Chemical structure	Units label	Observed result
CNC(=C[N+](=O)[O-])NCCSCc1ccc(CN(C)C)o1	mg/dL	142.8
Cc1nnc2n1-c1ccc(Cl)cc1C(c1ccccc1Cl)=NC2	mg/dL	158.2
O=C(OC[C@H]1O[C@@H](OC(=O)c2cc(O)c(O)c(OC(=O)c3cc(O)c(O)c(O)c3)c2)[C@H](OC(=O)c2cc(O)c(O)c(OC(=O)c3cc(O)c(O)c(O)c3)c2)[C@@H](OC(=O)c2cc(O)c(O)c(OC(=O)c3cc(O)c(O)c(O)c3)c2)[C@@H]1OC(=O)c1cc(O)c(O)c(OC(=O)c2cc(O)c(O)c(O)c2)c1)c1cc(O)c(O)c(OC(=O)c2cc(O)c(O)c(O)c2)c1	mg/dL	147.2
CN/C(=N/CCSCc1nc[nH]c1C)NC#N	mg/dL	143.8
COC(=O)C1=C(C)NC(C)=C(C(=O)OC)C1c1ccccc1[N+](=O)[O-]	mg/dL	132.8

* * *

# Species: Rattus norvegicus
# Experimental protocol: Open TG-GATES - Regimen: Daily Repeat
# Assay type: toxicity, organism-based, Sprague-Dawley
# Parameters: regimen Daily Repeat, gender Male, age 6 weeks
# Run parameters: in vivo, po, 100 mg/kg, […], tissue Plasma, route gavage, dose level Low, time 28 day

Chemical structure	ALP / IU/L
CN/C(=N/CCSCc1nc[nH]c1C)NC#N	672
CCOc1ccc(NC(C)=O)cc1	1231.2
O=C(OC[C@H]1O[C@@H](OC(=O)c2cc(O)c(O)c(OC(=O)c3cc(O)c(O)c(O)c3)c2)[C@H](OC(=O)c2cc(O)c(O)c(OC(=O)c3cc(O)c(O)c(O)c3)c2)[C@@H](OC(=O)c2cc(O)c(O)c(OC(=O)c3cc(O)c(O)c(O)c3)c2)[C@@H]1OC(=O)c1cc(O)c(O)c(OC(=O)c2cc(O)c(O)c(O)c2)c1)c1cc(O)c(O)c(OC(=O)c2cc(O)c(O)c(O)c2)c1	659.6
CNC(=C[N+](=O)[O-])NCCSCc1ccc(CN(C)C)o1	621.4
Cc1nnc2n1-c1ccc(Cl)cc1C(c1ccccc1Cl)=NC2	1207.4
COC(=O)C1=C(C)NC(C)=C(C(=O)OC)C1c1ccccc1[N+](=O)[O-]	1032.8

* * *

# Organism: Rattus norvegicus
# Experimental protocol: Open TG-GATES - Regimen: Daily Repeat
# Format: toxicity, organism-based, Sprague-Dawley
# Set-up: regimen Daily Repeat, gender Male, age 6 weeks
# Run parameters: in vivo, po, 0 mg/kg, […], tissue Blood, route gavage, dose level Control, time 28 day
Bas values for the compounds below.

Compound	Units label	Bas
CN(C)CCC(c1ccc(Cl)cc1)c1ccccn1 (stereo not drawn) [CHLORPHENIRAMINE]	%	0.2
Nc1c2c(nc3ccccc13)CCCC2 [TACRINE]	%	0
NC1=NC(=O)C(c2ccccc2)O1 (stereo not drawn) [PEMOLINE]	%	0.2
O=C(OC[C@H]1O[C@@H](OC(=O)c2cc(O)c(O)c(OC(=O)c3cc(O)c(O)c(O)c3)c2)[C@H](OC(=O)c2cc(O)c(O)c(OC(=O)c3cc(O)c(O)c(O)c3)c2)[C@@H](OC(=O)c2cc(O)c(O)c(OC(=O)c3cc(O)c(O)c(O)c3)c2)[C@@H]1OC(=O)c1cc(O)c(O)c(OC(=O)c2cc(O)c(O)c(O)c2)c1)c1cc(O)c(O)c(OC(=O)c2cc(O)c(O)c(O)c2)c1 [TANNIC ACID]	%	0
CNC(=C[N+](=O)[O-])NCCSCc1ccc(CN(C)C)o1 [RANITIDINE]	%	0.4
Cc1nnc2n1-c1ccc(Cl)cc1C(c1ccccc1Cl)=NC2 [TRIAZOLAM]	%	0.4
CCCc1cc(=O)[nH]c(=S)[nH]1 [PROPYLTHIOURACIL]	%	0
Brc1ccccc1 [BROMOBENZENE]	%	0
CCOc1ccc(NC(C)=O)cc1 [PHENACETIN]	%	0
COC(=O)C1=C(C)NC(C)=C(C(=O)OC)C1c1ccccc1[N+](=O)[O-] [NIFEDIPINE]	%	0.4
CN/C(=N/CCSCc1nc[nH]c1C)NC#N [CIMETIDINE]	%	0
CN1C(=O)CCS(=O)(=O)C1c1ccc(Cl)cc1 (stereo not drawn) [CHLORMEZANONE]	%	0
CC(C)NNC(=O)c1ccncc1 [IPRONIAZID]	%	0

* * *

# Organism: Rattus norvegicus
# Experimental protocol: Open TG-GATES - Regimen: Single
# Format: toxicity, organism-based, Sprague-Dawley
# Design: regimen Single, gender Male, age 6 weeks
# Run parameters: in vivo, po, 0 mg/kg, 9 h, tissue Kidney, route gavage, dose level Control
KIDNEY_R values for the molecules below.
Assay readout: KIDNEY_R

> print(dat)
                                   molecule  observed.result
1  CCCc1cc(=O)[nH]c(=S)[nH]1 [PROPYLTHIOURACIL]            0.9 g
2  CNC(=C[N+](=O)[O-])NCCSCc1ccc(CN(C)C)o1 [RANITIDINE]              1 g
3         Nc1c2c(nc3ccccc13)CCCC2 [TACRINE]            0.9 g
4         CCOc1ccc(NC(C)=O)cc1 [PHENACETIN]            0.9 g
